Measured pIC50 (IDH1 wild type enzyme (Homo sapiens))
Please express pIC50 as -log10 of the molar concentration.

C=CC(=O)N1CCN(C2(c3ccc([C@H](C)Nc4cc5c(ccc(=O)n5C(C)C)cn4)cc3)CCOCC2)CC1 [cpd 11] :: 6.44

[ask] What value of pIC50 has been reported for the following compound? C=CC(=O)N1CCN(C2(c3ccc([C@H](C)Nc4ncc5ccc(=O)n(C(C)C)c5n4)cc3)CCC(F)(F)CC2)CC1 [cpd 26]
[reply] 6.90

[ask] What value of pIC50 has been reported for the following compound? C=CC(=O)N1CCN(C2(c3ccc(C(C)(C)Nc4ncc5ccc(=O)n(C(C)C)c5n4)cc3)CCC(F)(F)CC2)CC1 [cpd 52]
[reply] 6.49

[ask] What value of pIC50 has been reported for the following compound? C=CC(=O)N1CCN(C2(c3ccc([C@H](C)Nc4cc5c(ccc(=O)n5C(C)C)cn4)cc3)CCC(F)(F)CC2)CC1 [cpd 47]
[reply] 7.01

[ask] What value of pIC50 has been reported for the following compound? C=CC(=O)N1CCN(C(CC)(CC)c2ccc([C@H](C)Nc3ncc4ccc(=O)n(C(C)C)c4n3)cc2)CC1 [cpd 4]
[reply] 6.50
